# credit: the kinase profiling compilation of Christmann-Franck et al. (2016)

# target_or_test_system: AURKB (human)
# assay_comment: radiometric filter-binding kinase assay
# test_conditions: compound 0.1 µM
We begin with a simple list: items and their reported residual activity.
Reply with just the number (in %).

Below are worked cases with known answers.
molecule=O=C(O)c1ccc(-c2c[nH]c3ncc(-c4ccccc4)cc23)cc1C1CCCC1 property_label="residual activity" measured_result=85
molecule=COc1ccc(-n2ncc3cnc(Nc4cc(OC)c(OC)c(OCCCN5CCN(C)CC5)c4)nc32)cc1 property_label="residual activity" measured_result=36
molecule=O=C(NCCCNc1nc(Nc2cccc(CN3CCOCC3)c2)ncc1C1CC1)C1CCC1 property_label="residual activity" measured_result=80

Q) So what does the record say about residual activity for `CCCCCc1ccc(/C=C/[C@H](O)[C@@H](CO)NC)cc1` ?
A) 100

Q) Any idea what its residual activity is? The molecule is `Cc1cccc(-c2nn(C(=S)Nc3ccccc3)cc2-c2ccnc3ccccc23)n1`
A) 98

Q) Look at this molecule and give its reported residual activity. `c1ccc2c(-c3cnn4cc(-c5ccc(N6CCNCC6)cc5)cnc34)ccnc2c1`
A) 95

Q) Would you mind telling me what residual activity value was observed for `NC(=O)c1cc(-c2ccnc(NC3CCCCC3)c2)nc(N2CCNCC2)c1` ?
A) 132

Q) Quick check: residual activity of COc1cc(O)c2c(c1)[C@H]1OC1C[C@H](O)[C@H](O)C(=O)/C=C\C[C@H](C)OC2=O (stereo partly specified) ?
A) 92
